- System: porcine liver CES
- experiment-description: In vitro CES inhibition (4-NPA substrate)
- Assay type: biochemical
- stated-conditions: porcine liver CES
measured-parameter: IC50 (µM)
Unit µM implied. Number only.

# input Please report the recorded IC50 for Oc1ccccc1CNCCCCCCCCNc1c2c(nc3c1CCC3)CCCC2 [10c] .
# output 10.5

====

Provide the recorded CES inhibition, % for the entries that follow.
- Tested on: porcine liver CES
- experiment-description: In vitro CES inhibition (4-NPA substrate)
- Assay type: biochemical
- stated-conditions: % inhibition at 20 μM; n.a. = not active
- Description: The esterase profile of the synthesized conjugates was determined. […] ^a All experiments were carried out in accordance with the standard protocols approved by IPAС RAS. […] The activity of enzymes was measured spectrophotometrically, as described in detail in ^[1] using ATCh iodide, BTCh iodide, and 4-NPA as substrates for AChE, BChE, and CES, respectively. […] Measurements were carried out on a FLUOStar Optima microplate reader (BMG Labtech, Ortenberg, Germany). […]
Unit % implied. Number only.

# input Hi! What's the reported CES inhibition, % for CCCCCCNc1c2c(nc3c1CCC3)CCCC2 [compound 11] on porcine liver CES?
# output 5.6

# input Now the molecule O=C(NCCCCNc1c2c(nc3c1CCC3)CCCC2)c1ccccc1O [7a]
# output 5.0

# input Now the molecule Oc1ccccc1C=NCCCCNc1c2c(nc3c1CCC3)CCCC2 [9a]
# output 10.5

====

Reported IC50, human erythrocyte AChE (Homo sapiens, UniProt P22303).
Unit µM implied. Number only.

# input Please report the recorded IC50 for CCCCCCNc1c2c(nc3c1CCC3)CCCC2 [compound 11] .
# output 4.3

# input Now the compound Oc1ccccc1CNCCCCCCCCNc1c2c(nc3c1CCC3)CCCC2 [10c]
# output 0.265

# input Now the compound Oc1ccccc1C=NCCCCCCCCNc1c2c(nc3c1CCC3)CCCC2 [9c]
# output 1.42

# input Now the compound O=C(NCCCCNc1c2c(nc3c1CCC3)CCCC2)c1ccccc1O [7a]
# output 1.52

# input Now the compound Oc1ccccc1CNCCCCNc1c2c(nc3c1CCC3)CCCC2 [10a]
# output 2.4

# input Now the compound Oc1ccccc1CNCCCCCCNc1c2c(nc3c1CCC3)CCCC2 [10b]
# output 1.19

# input Now the compound O=C(NCCCCCCNc1c2c(nc3c1CCC3)CCCC2)c1ccccc1O [7b]
# output 4.24

# input Now the compound Oc1ccccc1C=NCCCCNc1c2c(nc3c1CCC3)CCCC2 [9a]
# output 3.31

# input Now the compound O=C(NCCCCCCCCNc1c2c(nc3c1CCC3)CCCC2)c1ccccc1O [7c]
# output 1.53

====

- assayed-system: equine serum BChE (Equus caballus, UniProt P81908)
- Construct: purchased Sigma-Aldrich; Milamed, Perm, Russia (supplement); host or cells: horse serum
- Sequence (P81908 whole entry): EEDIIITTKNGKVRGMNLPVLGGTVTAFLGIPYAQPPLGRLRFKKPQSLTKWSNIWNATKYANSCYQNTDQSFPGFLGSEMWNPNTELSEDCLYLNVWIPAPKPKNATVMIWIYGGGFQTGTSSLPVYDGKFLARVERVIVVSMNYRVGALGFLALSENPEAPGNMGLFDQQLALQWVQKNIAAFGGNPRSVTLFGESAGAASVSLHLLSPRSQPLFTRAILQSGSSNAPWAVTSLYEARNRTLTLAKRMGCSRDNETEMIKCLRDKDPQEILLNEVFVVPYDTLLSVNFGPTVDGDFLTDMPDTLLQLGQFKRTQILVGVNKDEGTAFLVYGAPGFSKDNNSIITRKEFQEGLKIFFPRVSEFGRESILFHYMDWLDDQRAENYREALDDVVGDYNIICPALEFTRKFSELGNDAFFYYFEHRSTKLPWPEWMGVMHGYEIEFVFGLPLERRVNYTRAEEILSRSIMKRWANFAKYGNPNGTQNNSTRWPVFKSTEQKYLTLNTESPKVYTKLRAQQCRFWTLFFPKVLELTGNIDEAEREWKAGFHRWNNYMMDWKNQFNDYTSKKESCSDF
- experiment-description: biochemical
- stated-conditions: equine serum BChE; mean ± SEM, n = 3
Provide the recorded log10 of IC50 for the entries that follow.
Recorded IC50 (log10, nM)

# input Please report the recorded log10 of IC50 for O=C(NCCCCCCCCNc1c2c(nc3c1CCC3)CCCC2)c1ccccc1O [7c] .
# output 1.05

# input Now the compound O=C(NCCCCCCNc1c2c(nc3c1CCC3)CCCC2)c1ccccc1O [7b]
# output 1.34

# input Now the compound Oc1ccccc1CNCCCCCCNc1c2c(nc3c1CCC3)CCCC2 [10b]
# output 1.47

# input Now the compound O=C(NCCCCNc1c2c(nc3c1CCC3)CCCC2)c1ccccc1O [7a]
# output 2.40

# input Now the compound Oc1ccccc1C=NCCCCNc1c2c(nc3c1CCC3)CCCC2 [9a]
# output 2.81

# input Now the compound Oc1ccccc1CNCCCCNc1c2c(nc3c1CCC3)CCCC2 [10a]
# output 2.30

# input Now the compound Oc1ccccc1C=NCCCCCCCCNc1c2c(nc3c1CCC3)CCCC2 [9c]
# output 1.40

# input Now the compound Oc1ccccc1CNCCCCCCCCNc1c2c(nc3c1CCC3)CCCC2 [10c]
# output 1.34

# input Now the compound CCCCCCNc1c2c(nc3c1CCC3)CCCC2 [compound 11]
# output 2.42
